Please respond with reported IC50 for every item in the list.
- Target entity: Na⁺/H⁺-Exchangers von Kaninchenerythrocyten (Oryctolagus cuniculus)
- Construct: den Na⁺-Influx in die Erythrocyten via Na⁺/H⁺-Austausch flammenphotometrisch bestimmen zu können; endogenous in cells
- Sequence (P23791 whole entry): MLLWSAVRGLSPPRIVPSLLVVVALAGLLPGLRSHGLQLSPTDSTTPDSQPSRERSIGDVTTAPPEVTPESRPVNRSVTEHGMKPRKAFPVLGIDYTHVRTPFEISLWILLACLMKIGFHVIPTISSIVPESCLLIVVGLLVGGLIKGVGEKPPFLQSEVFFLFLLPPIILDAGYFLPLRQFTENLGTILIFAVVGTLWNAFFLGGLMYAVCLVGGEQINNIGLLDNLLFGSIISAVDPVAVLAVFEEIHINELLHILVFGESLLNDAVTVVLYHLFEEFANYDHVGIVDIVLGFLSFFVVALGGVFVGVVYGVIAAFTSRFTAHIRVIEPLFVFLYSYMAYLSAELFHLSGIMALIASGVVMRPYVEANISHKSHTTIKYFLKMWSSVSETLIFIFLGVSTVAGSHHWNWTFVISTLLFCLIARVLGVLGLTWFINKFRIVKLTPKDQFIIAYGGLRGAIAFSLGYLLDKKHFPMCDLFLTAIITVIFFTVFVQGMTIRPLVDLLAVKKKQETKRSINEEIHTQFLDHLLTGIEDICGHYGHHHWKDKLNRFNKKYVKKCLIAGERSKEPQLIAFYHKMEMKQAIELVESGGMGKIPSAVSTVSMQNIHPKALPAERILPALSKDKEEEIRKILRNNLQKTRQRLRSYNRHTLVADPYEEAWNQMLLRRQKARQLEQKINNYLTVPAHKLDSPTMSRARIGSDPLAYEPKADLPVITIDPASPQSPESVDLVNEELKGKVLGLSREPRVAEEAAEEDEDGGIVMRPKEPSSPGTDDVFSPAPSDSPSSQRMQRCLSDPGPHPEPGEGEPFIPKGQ
- Test description: Inhibition of the Na+/H+ exchanger of rabbit erythrocytes (amiloride-sensitive sodium influx, flame photometry)
- Condition set: Inhibition des Na⁺/H⁺-Exchangers, hyperosmolares Salz-Sucrose-Medium, pH 7,4, 37°C, read-out: IC₅₀

**Q:** Param item = NC(N)=NC(=O)c1cc(S(N)(=O)=O)c(Cl)cc1N ; retrieve measured IC50.
**A:** 2 to 3 µM

**Q:** Input NC(N)=NC(=O)c1cc(Cl)ccc1N
**A:** 1 to 2 µM

**Q:** Input CN(C)c1ccc(Cl)cc1C(=O)N=C(N)N
**A:** 1 to 2 µM

**Q:** Input NC(N)=NC(=O)c1cc(Br)c(Br)cc1N
**A:** 0.1 µM

Data origin, for the record: patent EP0690048A1
